measured target: T1, huCD33-G69 stably expressed on Jurkat cells (human, UniProt P20138 18-364)
T1 construct: whole, on cells; >200,000 receptors per cell; also called CD33 Mutant; CD33 R69G
T1 sequence (P20138 18-364 R69G): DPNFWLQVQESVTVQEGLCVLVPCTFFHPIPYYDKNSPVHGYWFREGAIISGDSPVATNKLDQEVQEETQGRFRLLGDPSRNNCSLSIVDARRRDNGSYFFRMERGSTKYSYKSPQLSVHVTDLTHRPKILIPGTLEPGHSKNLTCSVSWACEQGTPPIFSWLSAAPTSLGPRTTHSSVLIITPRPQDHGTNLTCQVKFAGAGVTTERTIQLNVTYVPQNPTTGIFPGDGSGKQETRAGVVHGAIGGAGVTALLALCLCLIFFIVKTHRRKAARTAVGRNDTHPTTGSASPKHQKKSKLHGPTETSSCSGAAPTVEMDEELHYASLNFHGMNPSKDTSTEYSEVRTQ
experiment description: FACS on cells;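 also: fixed Jurkat lines probed with myc-tagged scFv periplasmic extracts, anti-myc PE flow cytometry, PE MFI fold binned − <2, + 2–10, ++ 10–30, +++ >30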
measured parameter: FACS geometric mean fold change over Jurkat parental

Reported FACS geometric mean fold change over Jurkat parental, binder Polypeptide No. 132 (scFv, V domains shown, scFv) VH: EVQLLESGGGLVQPGGSLRLSCAASGFTFNNYGMHWVRQAPGKGLEWVSAISGSGGSTYYADSVKGRFTISRDNSKNTLYLQMNSLRAEDTAVYYCAREYMQQPHGGMDVWGQGTTVTVSS VL: EIVMTQSPATLSVSPGERATLSCRASQSVNSYLAWYQQKPGQAPRLLIYGASTRATGIPARFSGSGSGTEFTLTISSLQSEDFAVYYCQQYGSSPLSFGGGTKVEIKR : ____
10 to 30 fold

Reported FACS geometric mean fold change over Jurkat parental, binder Polypeptide No. 139 (scFv, V domains shown, scFv) VH: QVQLVQSGAEVKKPGASVKVSCKASGYTLSDHDINWVRQAPGQGLEWMGWMNPSTGNTGYAQKFQGRVTMTRDTSTSTVYMELSSLRSEDTAVYYCERDQLRFGAWFDPWGQGTLVTVSS VL: DIQMTQSPSSLSASVGDRVTITCRASQGIRNYLAWYQQKPGKAPKLLIYAASSLQSGVPSRFSGSGSGTDFTLTISSLQPEDFATYYCQQSYSIPLTFGGGTKVEIKR : ____
> 30 fold
